Data provenance is patent US11814435B2.

tested_target: T1, hBCMA (human BCMA) (Homo sapiens, UniProt Q02223)
T1 sequence (Q02223 1-184): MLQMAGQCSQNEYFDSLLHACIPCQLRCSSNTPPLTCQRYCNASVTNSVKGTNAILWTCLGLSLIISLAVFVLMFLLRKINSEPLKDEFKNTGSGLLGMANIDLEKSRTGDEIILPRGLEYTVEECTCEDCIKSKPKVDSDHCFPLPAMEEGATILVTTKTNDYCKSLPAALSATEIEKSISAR
assay_text: Kinetics and affinity of hBCMA/human IgG interactions by SPR (Bio-Rad Proteon XPR36)
Format: binding
assay_setup: human BCMA, 37° C.
recorded_metric: ka Human (M⁻¹ s⁻¹)
Write the number in M⁻¹ s⁻¹ without appending the unit.

* A02_Rd4_0.6 nM_C18: anti-BCMA antibody (antibody, V domains shown) VH: EVQLLESGGGLVQPGGSLRLSCAASGFTFSSYAMNWVRQAPGKGLEWVSAVLDSGGSTYYADSVKGRFTISRDNSKNTLYLQMNSLRAEDTAVYYCARYWPMSLWGQGTLVTVSS VL: EIVLTQSPGTLSLSPGERATLSCRASQSVSELYLAWYQQKPGQAPRLLMYDASIRATGIPDRFSGSGSGTDFTLTISRLEPEDFAVYYCQQYFGWPLTFGQGTKVEIK | 4.73e+06

Continue with the next molecule.
(Q) Can you look up the measured ka Human of C01_Rd4_6 nM_C09: anti-BCMA antibody (antibody, V domains shown) VH: EVQLLESGGGLVQPGGSLRLSCAASGFTFSSYPMSWVRQAPGKGLEWVSATVGSGGSIGYADSVKGRFTISRDNSKNTLYLQMNSLRAEDTAVYYCARYWPMDSWGQGTLVTVSS VL: EIVLTQSPGTLSLSPGERATLSCACSQSVSSTYLAWYQQKPGQAPRLLIYDASSRAPGIPDRFSGSGSGTDFTLTISRLEPEDFAVYYCQQYSAWPLTFGQGTKVEIK for me?
(A) 1.58e+07
